Test system: MS2 coat protein
Procedure Text: apparent KD of MS2 coat protein; designed switch direction (-1 OFF switch, 1 ON switch): -1; higher = weaker reporter binding
Measurement Setup: input ligand: none
Listed sequences paired with reported apparent KD of MS2 coat protein

Residue Sequence	apparent KD of MS2 coat protein, µM
CCUCAUAUUUAGGAUAUGAUUGGUAAUUAUUAGUUAGAAGGAGGUACAUGAGGAUCACCCAUGUAAAAUUUUUU [-13.7, -10.8 kcal, 32% A] (Eterna round: R97, puzzle: Exclusion 6)	0.0196
CUGUGCACGCUGCGAUCCUACAUGAGGAUCACCCAUGUGGUCUGGUGGCGUGGGUCACCGGACUUGGCUCGUCUUGU [salish99_S_TOV1_R5_079] (Eterna round: R97, puzzle: Sensor, turn-off variant 1)	0.0907
GCCGCUCACGAGGAUAUGGUGGAAAAGCCUUUGCUAGAAGGCGUGACAUGAGGAUCACCCAUGUAGGCACAUGA [Eternabot (L1) Solution 85] (Eterna round: R97, puzzle: Exclusion 6)	0.0304
GUUUUCAGACGGAGAUCCUACAUGAGGAUCACCCAUGUCUCUCUUGCUAAUUGCUCGUCUUUUCCUCCUCUGUUCUC [Elimod 35 - Jieux - Sensor, turn-off variant 1] (Eterna round: R97, puzzle: Sensor, turn-off variant 1)	0.567
GUCUUCAUGACAUGAGGAUCACCCAUGUGUUAUUUGUUAACUAAGGAUAUAUUUUUAAUGUUGAGAUAGAAGGUAGUUUCGGUC [JR_ExcNG3_Sub090] (Eterna round: R96, puzzle: Exclusion NG 3)	0.149

----------
# reported apparent KD of MS2 coat protein; entries follow
Tested on: MS2 coat protein
Procedure Text: apparent KD of MS2 coat protein; designed switch direction (-1 OFF switch, 1 ON switch): 1; higher = weaker reporter binding
Measurement Setup: Eterna round: R95; input ligand: microRNA oligo, concentration not stated

Residue Sequence	apparent KD of MS2 coat protein
UUUAGGAACGGGCAGGAUAUGUAUUAAAAUACAUGAGGAUCACCCAUGUGCGGGUAUAACACCCGACAGAAGGGCCAAUCGUUCC [Laonerce - 9] (puzzle: Same State 2)	170 nM
GACAAUCUAUCUGAGGAUAUCAUGAGAAGAACAUGAGGAUCACCCAUGUGCAGGAAAACUGCAUAUGAGAAGGCAGAUAGAUUGA [Mat - Same State 2 - Mod - D16] (puzzle: Same State 2)	1600 nM
UCUUGGUUUUUGCUCGUUUUUUGUGUUGAACAUGAGGAUCACCCAUGUAUUGUACGGUCCAGUUUGAUAGUGGUCCG [JMF 33] (puzzle: Sensor for hsa-mir-208a)	13.6 nM
UAGCACUGUCGAGAGGAUAUGCGGUGAUGGACAUGAGGAUCACCCAUGUUAGCGACAGCAUCACGGCAGAAGGCUCUACUGCUGC [Soteed Omei mod 35] (puzzle: Same State 2)	15.6 nM
GGAGCCGGUACUGAGGAUAUUCAUCUUAAAACAUGAGGAUCACCCAUGUAGGCCAGAAGGCCUUGGGAGAAGGCAGAUCGGCUCC [Biseusra - 7] (puzzle: Same State 2)	52.2 nM
GGUUUAGUCAAGCGCAGUUGCACUUGAAAACAUGAGGAUCACCCAUGUUUGGGACAAGCUUUGCUCCUCGUCUUUCC [Dicebior] (puzzle: Sensor for hsa-mir-208a)	78.2 nM
AUAAGUUCGAUGCUCGUCUCUCCGUACAAACAUGAGGAUCACCCAUGUGAUCGGGAAGUAGCCCGGUCAGUAUGGCC [Ordierti] (puzzle: Sensor for hsa-mir-208a)	24.4 nM
UUAAAACAUGAGGAUCACCCAUGUAAUAAUAUGGGAGGAUAUCAGAAUGUAUGUAUGUAAUGAGAAGGCCUAAAUG [Mat - Same State 1 - Mod of Eli - D77] (puzzle: Same State 1)	156 nM
UCUUGGUUUUUGCUCGUUUUUUGUGUUGAACAUGAGGAUCACCCAUGUAUUGUACGGUCCGGUUUAGUGAUGAUCCA [JMF 76] (puzzle: Sensor for hsa-mir-208a)	196 nM
CAGCACUAUCGAGAGGAUAUGCGGUGAUGGACAUGAGGAUCACCCAUGUUAGCGGUAGCAUCACGGCAGAAGGCUCUGCUGCUGC [Soteed Omei mod 39] (puzzle: Same State 2)	28.8 nM

These measurements were taken from the supplement of paper PMC9170038.
